- assayProtocol: Cmax in rat at 10 mg/kg, po
- Type: ADME, organism-based
- Set-up: route oral, dose 10 mg/kg
- testSettings: in vivo
assayEndpoint: Cmax (ng/mL)
Enter your answer as a number in ng/mL; do not include the unit.

Requested read-out: Cmax. Entry: CC(=O)Nc1ccc(OCCCN2CCC(c3noc4cc(F)ccc34)CC2)cc1
745

* * *

- assayProtocol: Tmax in rat at 10 mg/kg, po
- Assay type: ADME, organism-based
- testSettings: in vivo
assayEndpoint: Tmax (h)
The reply should be a number in h, with the unit left off.

Bench note: what Tmax did CC(=O)Nc1ccc(OCCCN2CCC(c3noc4cc(F)ccc34)CC2)cc1 show?
7

src = ChEMBL document CHEMBL4725387
